B1: Tesmin, residues 368 to 403; numbered along this chain, Q9Y4I5 (parent)
chain: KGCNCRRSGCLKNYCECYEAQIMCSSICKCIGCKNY

Variants of: B1
test details: abundance fitness (aPCA) (normalised: wild type 0, dead -1); higher = more abundant; growth selection in yeast, the domain comes from the species named
assay conditions: Homo sapiens
Threshold check on abundance fitness: at or above -0.05 gives 1, strictly below gives 0.

A selection of reference data follows.
Q: Could you please find out whether KGCNCRRSGCLKNYHECYEAQIMCSSICKCIGCKNY [C15H] has abundance fitness that meets -0.05 or exceeds it?
Ans: 0

Q: Could you please find out whether KGCNCRRSGCLKNYCECCEAQIMCSSICKCIGCKNY [Y18C] has abundance fitness that meets -0.05 or exceeds it?
Ans: 0

Q: Could you please find out whether KGCNCRRKGCLKNYCECYEAQIMCSSICKCIGCKNY [S8K] has abundance fitness that meets -0.05 or exceeds it?
Ans: 0

Q: Could you please find out whether KGCNCRRSGCLKNICECYEAQIMCSSICKCIGCKNY [Y14I] has abundance fitness that meets -0.05 or exceeds it?
Ans: 0

Q: Could you please find out whether KGCNCRRSGCLKCYCECYEAQIMCSSICKCIGCKNY [N13C] has abundance fitness that meets -0.05 or exceeds it?
Ans: 0

Q: Could you please find out whether KGCNCRRSGCLKNYCECYEAQIMCSSICNCIGCKNY [K29N] has abundance fitness that meets -0.05 or exceeds it?
Ans: 1

Q: Could you please find out whether KGCNCRRSGCLKNYCECYFAQIMCSSICKCIGCKNY [E19F] has abundance fitness that meets -0.05 or exceeds it?
Ans: 0

Q: Could you please find out whether KGCNCRRSGCLKNYCECYEAQIMCSSICKCKGCKNY [I31K] has abundance fitness that meets -0.05 or exceeds it?
Ans: 0

Q: Could you please find out whether KGCNCRRSGCLKNYCECYEAQIMCSSIQKCIGCKNY [C28Q] has abundance fitness that meets -0.05 or exceeds it?
Ans: 0

Q: Could you please find out whether KGCNCRRSGCLKNYCQCYEAQIMCSSICKCIGCKNY [E16Q] has abundance fitness that meets -0.05 or exceeds it?
Ans: 1

More entries:
Q: Could you please find out whether KGCNCRRSGCLKNYCECYEAQIMCSSICKIIGCKNY [C30I] has abundance fitness that meets -0.05 or exceeds it?
Ans: 0

Q: Could you please find out whether KGCNCRRSGCLKNYCECYEAQIMCSSECKCIGCKNY [I27E] has abundance fitness that meets -0.05 or exceeds it?
Ans: 1

Q: Could you please find out whether KGCNCRRSGCLKNYCECPEAQIMCSSICKCIGCKNY [Y18P] has abundance fitness that meets -0.05 or exceeds it?
Ans: 0

Q: Could you please find out whether KGCMCRRSGCLKNYCECYEAQIMCSSICKCIGCKNY [N4M] has abundance fitness that meets -0.05 or exceeds it?
Ans: 1
